In this section we review reported T. cruzi SI values for a set of molecules.
test system: T. cruzi; assay: In vitro growth inhibition of T. cruzi intracellular amastigotes grown in L6 rat myoblasts; format: cell-based, Trypanosoma cruzi; settings: Table 4, pure compounds
Reply with the value as a number alone.

Some molecules with recorded T. cruzi SI:
Molecule	Measurement target	Value reported
O=C(O)c1cc(O)c(O)c(O)c1 [Gallic acid (1), gallic acid]	T. cruzi	0.2
COC(=O)c1cc(O)c(O)c(O)c1 [Methyl gallate (2), methyl gallate]	T. cruzi	1.0
O=C(OC[C@@H]1O[C@H](OC(=O)c2cc(O)c(O)c(O)c2)[C@@H](OC(=O)c2cc(O)c(O)c(O)c2)[C@H](OC(=O)c2cc(O)c(O)c(O)c2)[C@H]1OC(=O)c1cc(O)c(O)c(O)c1)c1cc(O)c(O)c(O)c1 [Pentagalloyl-β-glucopyranoside (5), 1,2,3,4,6 pentagalloyl-β-glucopyranoside]	T. cruzi	0.5

Consider the additional molecule presented here.
Query: Entry O=c1c(O)c(-c2ccc(O)c(O)c2)oc2c(O)c(O[C@@H]3O[C@H](CO)[C@@H](O)[C@H](O)[C@H]3O)cc(O)c12 [Gossypetin-7-O-β-glucopyranoside (6), gossypetin-7-O-β-glucopyranoside] : reported T. cruzi SI = ?
Result: 0.8
